target: Transient receptor potential cation channel subfamily M member 8 (Homo sapiens, UniProt Q7Z2W7); assay: Antagonist activity against human recombinant TRPM8 expressed in CHO T-rex cells assessed as inhibition of WS12-induced calcium response pre-incubated for 20 mins before WS12 addition; assay type: cell-based
Sequence (Q7Z2W7 whole entry): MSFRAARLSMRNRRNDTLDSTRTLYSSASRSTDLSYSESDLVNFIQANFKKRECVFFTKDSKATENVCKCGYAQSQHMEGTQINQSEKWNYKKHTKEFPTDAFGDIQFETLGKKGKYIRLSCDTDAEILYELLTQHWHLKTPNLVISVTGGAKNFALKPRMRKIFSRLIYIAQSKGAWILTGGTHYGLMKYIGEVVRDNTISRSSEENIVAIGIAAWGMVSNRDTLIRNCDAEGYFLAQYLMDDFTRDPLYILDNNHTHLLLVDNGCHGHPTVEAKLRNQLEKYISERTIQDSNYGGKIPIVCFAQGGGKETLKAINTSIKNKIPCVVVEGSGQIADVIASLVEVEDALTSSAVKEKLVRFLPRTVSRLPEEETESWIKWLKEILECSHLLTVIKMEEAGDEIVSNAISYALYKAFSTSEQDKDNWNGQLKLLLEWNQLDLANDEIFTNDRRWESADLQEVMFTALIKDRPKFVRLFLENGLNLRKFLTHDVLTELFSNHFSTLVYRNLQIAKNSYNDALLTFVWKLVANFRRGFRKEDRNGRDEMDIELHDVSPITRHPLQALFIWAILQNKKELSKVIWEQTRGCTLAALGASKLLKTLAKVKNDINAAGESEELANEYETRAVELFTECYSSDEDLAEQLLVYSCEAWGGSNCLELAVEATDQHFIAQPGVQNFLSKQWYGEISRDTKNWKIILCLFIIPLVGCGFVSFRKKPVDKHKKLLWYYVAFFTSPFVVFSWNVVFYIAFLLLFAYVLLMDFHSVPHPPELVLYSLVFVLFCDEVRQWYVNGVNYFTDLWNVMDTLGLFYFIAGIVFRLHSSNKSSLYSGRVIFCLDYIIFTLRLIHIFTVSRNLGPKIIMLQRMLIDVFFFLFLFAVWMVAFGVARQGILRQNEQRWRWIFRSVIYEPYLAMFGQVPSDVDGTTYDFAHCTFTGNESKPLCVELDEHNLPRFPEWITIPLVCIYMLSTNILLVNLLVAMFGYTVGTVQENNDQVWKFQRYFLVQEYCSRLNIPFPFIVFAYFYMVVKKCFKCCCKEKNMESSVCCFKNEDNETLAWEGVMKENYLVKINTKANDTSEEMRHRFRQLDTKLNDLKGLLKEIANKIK
# Lookup of reported IC50 keyed by entry
ASSAY_ENDPOINT: IC50 (nM)

[[record]]
smiles_record = "C[C@H](c1ccc(F)cc1)N(Cc1ccc(F)c(C(=O)O)c1)C(=O)c1cnc2ccccc2c1"
unit_descriptor = "nM"
value_comparator = "="
endpoint_value = 3280

[[record]]
smiles_record = "C[C@H](c1ccc(F)cc1F)N(Cc1cccc(C(=O)O)n1)C(=O)c1cc2ccccc2cn1"
unit_descriptor = "nM"
value_comparator = "="
endpoint_value = 190

[[record]]
smiles_record = "CC[C@H](c1ccc(F)cc1F)N(Cc1cccc(C(=O)O)c1)C(=O)c1cc2ccccn2n1"
unit_descriptor = "nM"
value_comparator = "="
endpoint_value = 123

[[record]]
smiles_record = "C[C@H](c1ccc(F)cc1)N(Cc1cccc(C(=O)O)c1)C(=O)Cc1cccc(Cl)c1"
unit_descriptor = "nM"
value_comparator = ">"
endpoint_value = 10000

[[record]]
smiles_record = "C[C@H](c1ccc(F)cc1)N(Cc1cccc(C(=O)O)c1)C(=O)c1ccc(Oc2ccccc2)cc1"
unit_descriptor = "nM"
value_comparator = ">"
endpoint_value = 6170

[[record]]
smiles_record = "CC(C)(c1ccc(F)cc1)N(Cc1cccc(C(=O)O)c1)C(=O)c1cnc2ccccc2c1"
unit_descriptor = "nM"
value_comparator = ">"
endpoint_value = 10000

[[record]]
smiles_record = "C[C@H](c1ccc(F)cc1)N(Cc1cccc(C(=O)O)c1)C(=O)c1cc2cc[nH]c2cn1"
unit_descriptor = "nM"
value_comparator = "="
endpoint_value = 951

[[record]]
smiles_record = "C[C@H](c1ccc(F)cc1)N(Cc1cccc(C(=O)O)c1)C(=O)c1cc2ccccn2n1"
unit_descriptor = "nM"
value_comparator = "="
endpoint_value = 94

[[record]]
smiles_record = "C[C@H](c1ccc(F)cc1)N(Cc1cccc(C(=O)O)c1)C(=O)c1cc2ccccc2s1"
unit_descriptor = "nM"
value_comparator = "="
endpoint_value = 145

